pKd for assorted binders
- assay-system: T1, Human CD24 (human, UniProt P25063 27-59, limits assumed)
- T1 chain (looked up): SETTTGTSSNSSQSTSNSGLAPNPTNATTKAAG
- assay: affinity ranking; antibody as ligand, Human CD24 as analyte
pKd: −log10 of the molar value.

| binder | pKd |
| --- | --- |
| VH3 + VL3 (humanized 4451) (antibody, V domains shown, IgG expressed in HEK293) VH: QVQLVQSGAEVKKPGASVKVSCKASGYDFTGYHMNWVRQAPGQGLEWIGEINPITSDKTFNQKFKSRATMTVDTSISTAYMELSRLRSDDTAVYYCARRDYGTSLDYWGQGTTVTVSS VL: DIQLTQSPSFLSASVGDRVTITCRASKSISKYLAWYQQKPGKAPKLLIYAGSTLHSGIPSRFRGSGSGTEFTLTISSLQPEDFATYYCQQHNEYPITFGQGTKLEIK | 7.62 |
| VH4 + VL1 (humanized 4451) (antibody, V domains shown, IgG expressed in HEK293) VH: QVQLVQSGAEVKKPGASVKVSCKASGYDFTGYHMNWVKQAPGQGLEWIGEINPITSDKTFNQKFKSRATMTVDRSISTAYMELSRLRSDDTAVYYCARRDYGTSLDYWGQGTTVTVSS VL: DIQLTQSPSFLSASVGDRVTITCRASKSISKYLAWYQQKPGKAPKLLIYAGSTLHSGVPSRFSGSGSGTEFTLTISSLQPEDFATYYCQQHNEYPITFGQGTKLEIK | 8.08 |
| VH + VL (4451 parental variable regions, Table 7) (antibody, V domains shown) VH: EVQLQQSGPELVKPGASVKISCKASGYDFTGYHMNWVKQSPEKSLEWIGEINPITSDKTFNQKFKSKATLTVDRSSSTAYMYLKSLTSEDSAVYYCARRDYGTSLDYWGQGTTLTVSS VL: DVQITQSPSYLAASPGETITIYCRASKSISKYLAWYQEKPEKTNRLLIYAGSTLHSGIPSRFRGSGSGKDFTLTVSGLEPEDFAMYYCQQHNEYPITFGAGTKLELK | 8.49 |
| VH1 + VL4 (humanized 4451) (antibody, V domains shown, IgG expressed in HEK293) VH: QVQLVQSGAEVKKPGASVKVSCKASGYDFTGYHMNWVRQAPGQGLEWMGEINPITSDKTFNQKFKSRVTMTRDTSISTAYMELSRLRSDDTAVYYCARRDYGTSLDYWGQGTTVTVSS VL: DIQLTQSPSFLSASVGDRVTIYCRASKSISKYLAWYQQKPGKAPRLLIYAGSTLHSGIPSRFRGSGSGTEFTLTISSLQPEDFATYYCQQHNEYPITFGQGTKLEIK | 7.82 |
| VH4 + VL3 (humanized 4451) (antibody, V domains shown, IgG expressed in HEK293) VH: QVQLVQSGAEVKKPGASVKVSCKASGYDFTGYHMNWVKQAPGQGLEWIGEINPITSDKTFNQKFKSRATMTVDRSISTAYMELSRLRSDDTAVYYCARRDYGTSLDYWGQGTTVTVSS VL: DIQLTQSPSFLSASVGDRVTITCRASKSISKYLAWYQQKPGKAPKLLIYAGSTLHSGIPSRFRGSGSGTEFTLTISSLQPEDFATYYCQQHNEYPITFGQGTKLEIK | 8.05 |
| VH3 + VL4 (humanized 4451) (antibody, V domains shown, IgG expressed in HEK293) VH: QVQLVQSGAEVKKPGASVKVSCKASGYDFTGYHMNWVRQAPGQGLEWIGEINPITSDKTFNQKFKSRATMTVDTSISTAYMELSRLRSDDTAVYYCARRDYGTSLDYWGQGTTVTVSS VL: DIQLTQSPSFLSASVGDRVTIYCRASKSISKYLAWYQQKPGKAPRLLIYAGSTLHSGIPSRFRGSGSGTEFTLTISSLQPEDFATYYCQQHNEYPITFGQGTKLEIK | 7.61 |
| VH2 + VL3 (humanized 4451) (antibody, V domains shown, IgG expressed in HEK293) VH: QVQLVQSGAEVKKPGASVKVSCKASGYDFTGYHMNWVRQAPGQGLEWIGEINPITSDKTFNQKFKSRVTMTVDTSISTAYMELSRLRSDDTAVYYCARRDYGTSLDYWGQGTTVTVSS VL: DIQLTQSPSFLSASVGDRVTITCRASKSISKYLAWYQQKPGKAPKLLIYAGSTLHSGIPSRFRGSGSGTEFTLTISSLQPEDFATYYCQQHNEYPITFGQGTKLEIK | 7.71 |
| VH3 + VL1 (humanized 4451) (antibody, V domains shown, IgG expressed in HEK293) VH: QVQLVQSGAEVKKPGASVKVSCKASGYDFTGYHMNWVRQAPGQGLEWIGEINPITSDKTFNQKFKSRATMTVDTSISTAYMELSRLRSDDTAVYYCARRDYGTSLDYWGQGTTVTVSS VL: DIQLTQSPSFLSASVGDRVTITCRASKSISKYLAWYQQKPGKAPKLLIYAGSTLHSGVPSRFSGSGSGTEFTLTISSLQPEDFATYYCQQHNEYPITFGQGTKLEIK | 7.59 |

Cited source: patent US20260265403A1
